measured-target: NAD-dependent protein deacetylase sirtuin-1 (Homo sapiens, UniProt Q96EB6)
Sequence (Q96EB6 whole entry): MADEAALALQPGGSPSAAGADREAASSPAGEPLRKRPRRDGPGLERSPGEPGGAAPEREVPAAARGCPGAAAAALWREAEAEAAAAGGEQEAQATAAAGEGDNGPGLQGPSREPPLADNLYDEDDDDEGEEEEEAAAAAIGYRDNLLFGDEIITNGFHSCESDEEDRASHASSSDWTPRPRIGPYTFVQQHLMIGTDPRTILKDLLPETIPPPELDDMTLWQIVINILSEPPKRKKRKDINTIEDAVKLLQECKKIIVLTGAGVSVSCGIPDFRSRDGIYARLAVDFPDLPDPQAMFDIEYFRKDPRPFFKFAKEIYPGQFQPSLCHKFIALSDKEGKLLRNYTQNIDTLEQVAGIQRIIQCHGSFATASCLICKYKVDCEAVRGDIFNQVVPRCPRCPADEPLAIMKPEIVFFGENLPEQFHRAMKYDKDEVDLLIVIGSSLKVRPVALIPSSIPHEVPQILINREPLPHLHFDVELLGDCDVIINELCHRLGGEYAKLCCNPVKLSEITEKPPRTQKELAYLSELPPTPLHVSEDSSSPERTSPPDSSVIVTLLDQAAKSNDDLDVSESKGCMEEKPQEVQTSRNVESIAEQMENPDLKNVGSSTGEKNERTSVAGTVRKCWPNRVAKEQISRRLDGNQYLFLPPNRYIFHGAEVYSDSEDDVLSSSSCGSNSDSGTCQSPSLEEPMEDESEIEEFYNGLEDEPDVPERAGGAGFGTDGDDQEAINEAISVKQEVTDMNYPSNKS
assay-remarks: Inhibition of human recombinant N-terminally GST-tagged Sirt1 expressed in Escherichia coli using ZMAL as substrate after 4 hrs by homogeneous fluorescent deacetylase assay
quantity: IC50

Some molecules with known IC50 results, for comparison:
>  <compound>
S=c1[nH]c2ccc3ccccc3c2[nH]1

>  <IC50>
9.6 µM

$$$$
>  <compound>
COc1ccc2[nH]c(=S)[nH]c2n1

>  <IC50>
21.4 µM

$$$$
>  <compound>
NCCn1c(=S)[nH]c2cc([N+](=O)[O-])ccc21

>  <IC50>
7.7 µM

$$$$
>  <compound>
S=c1[nH]c2ccc(Cl)nc2[nH]1

>  <IC50>
> 100 µM

$$$$

// query Field: IC50 (NAD-dependent protein deacetylase sirtuin-1 (Homo sapiens, UniProt Q96EB6)). Entry: O=C(O)c1ccc2[nH]c(=S)[nH]c2c1
// result 29.3 µM
